Target: PRKAA1 (human) (UniProt Q13131)
Sequence (Q13131 whole entry, looked up): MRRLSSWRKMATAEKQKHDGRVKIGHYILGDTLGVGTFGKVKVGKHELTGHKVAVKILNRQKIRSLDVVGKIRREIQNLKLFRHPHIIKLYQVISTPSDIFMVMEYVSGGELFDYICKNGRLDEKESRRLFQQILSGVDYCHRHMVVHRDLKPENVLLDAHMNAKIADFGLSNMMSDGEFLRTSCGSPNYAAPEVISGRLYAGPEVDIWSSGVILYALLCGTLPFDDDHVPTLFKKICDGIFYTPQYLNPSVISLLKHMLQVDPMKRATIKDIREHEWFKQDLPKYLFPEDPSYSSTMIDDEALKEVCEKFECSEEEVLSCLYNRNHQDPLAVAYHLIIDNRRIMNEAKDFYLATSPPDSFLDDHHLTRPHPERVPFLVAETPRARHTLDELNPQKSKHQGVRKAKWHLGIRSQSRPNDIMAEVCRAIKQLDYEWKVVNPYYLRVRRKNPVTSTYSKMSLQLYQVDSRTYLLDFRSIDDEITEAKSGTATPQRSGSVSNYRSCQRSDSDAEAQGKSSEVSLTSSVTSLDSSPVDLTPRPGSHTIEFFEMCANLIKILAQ
Assay: KINOMEscan competition binding
Conditions: compound 10.0 µM
Recorded kinase still bound, per cent of control, one value per entry.
Enter the number, and then the unit.

Reference set, count: 10
compound	tested-target	kinase still bound, per cent of control
CCN(CCO)CCCOc1ccc2c(Nc3cc(CC(=O)Nc4cccc(F)c4)[nH]n3)ncnc2c1	PRKAA1 (human) (UniProt Q13131)	64%
C=CC(=O)Nc1ccc(C(=O)c2sc(Nc3ccc(N4CCN(C)CC4)cc3OC)nc2N)cc1	PRKAA1 (human) (UniProt Q13131)	100%
CCOc1cc(N2CCC(O)CC2)ccc1Nc1ncc2c(n1)N(C)c1ccccc1C(=O)N2C	PRKAA1 (human) (UniProt Q13131)	100%
COc1cc(C)c(Sc2cnc(NC(=O)c3ccc(CNC(C)C(C)C)cc3)s2)cc1C(=O)N1CCN(C(C)=O)CC1 (stereo not drawn)	PRKAA1 (human) (UniProt Q13131)	100%
COc1cc2c(Nc3ccc(NC(=O)c4ccccc4)cc3)ncnc2cc1OCCCN1CCOCC1	PRKAA1 (human) (UniProt Q13131)	62%
N#Cc1cc(-c2ccnc(Nc3ccc(-n4cnc(-c5cccnc5)n4)cc3)n2)cc(N2CCOCC2)c1	PRKAA1 (human) (UniProt Q13131)	84%
CCN1CCN(Cc2ccc(NC(=O)c3ccc(C)c(/C=C/c4cnc5[nH]ccc5c4OC)c3)cc2C(F)(F)F)CC1	PRKAA1 (human) (UniProt Q13131)	20%
Cc1cn(-c2cc(C(=O)Nc3ccc(C)c(NC(=O)c4ccno4)c3)cc(C(F)(F)F)c2)cn1	PRKAA1 (human) (UniProt Q13131)	100%
COc1cc2ncnc(Nc3cccc(Cl)c3)c2cc1OC	PRKAA1 (human) (UniProt Q13131)	100%
CNC(=O)Nc1ccc(-c2nc(N3CC4CCC(C3)O4)c3cnn(C4CCC5(CC4)OCCO5)c3n2)cc1	PRKAA1 (human) (UniProt Q13131)	94%

Supply recorded kinase still bound, per cent of control for CCc1nc(-c2cccc(C)c2)c(-c2ccnc(NC(=O)c3ccccc3)c2)s1 here.
81%

Supply recorded kinase still bound, per cent of control for COc1cc(N2CCC(C(N)=O)CC2)ccc1Nc1nc(N)c(Cl)c(Nc2ccccc2S(=O)(=O)C(C)C)n1 here.
100%

Supply recorded kinase still bound, per cent of control for COc1ccc(N(C(=O)Oc2cc(C(=O)Nc3cccc(C(F)(F)F)c3)ccc2C)c2ccnc(Nc3ccc(N4CCN(C)CC4)cc3)n2)c(OC)c1 here.
1.6%

Supply recorded kinase still bound, per cent of control for N#C/C(=C1/Nc2ccccc2S1)c1ccnc(NCCc2cccnc2)n1 here.
100%

Supply recorded kinase still bound, per cent of control for CC1=C(C(=O)Nc2cc3cn[nH]c3cc2F)C(c2ccc(C(F)(F)F)cc2)CC(=O)N1 (stereo not drawn) here.
13%
